test system: MCF-7 (HER2 negative to normal); experiment: In vitro cytotoxicity evaluation (cell proliferation inhibition, SRB dye); type: cell-based, human; details: MCF7 cells, SRB viable cell count; no 144 h footnote (168-hour treatment group)
Non-standard residues stand in square brackets, D forms with d. Residues, ends and D or L forms follow the SMILES beside them. *: point of attachment. Dolaproine = CO[C@@H]([C@@H]1CCCN1)[C@@H](C)C(=O)O; Dil = CC[C@H](C)[C@H](NC)[C@@H](CC(=O)O)OC; X1 = C[C@@H](N*)[C@@H](O)c1ccccc1; NMeV = CN[C@H](C(=O)O)C(C)C
recorded metric: CC50 (nM)
Numbers only, in nM.

Exercise: # CC50 lookup, item CC[C@H](C)[C@@H]([C@@H](CC(=O)N1CCC[C@H]1[C@H](OC)[C@@H](C)C(=O)N[C@H](C)[C@@H](O)c1ccccc1)OC)N(C)C(=O)[C@@H](NC(=O)[C@@H](NC)C(C)C)C(C)C [MMAE, monomethyl auristatin E] (H-[NMeV]V[Dil][Dolaproine]-X1)
Solution: 0.31
